biological target: Thrombin (Homo sapiens, UniProt P00734); assay: Esterase assay, thrombin; format: biochemical; conditions: Z-AX-OMe substrate, X = P1 residue; rates approximately ± 10%
Where a SMILES comes first, the peptide text is derived from it. The star is where a group is joined. Cbz = O=C(OCc1ccccc1)*
measured_parameter: Esterase rate, Thrombin

{"compound": "COC(=O)[C@H](CCCNC(=N)N)NC(=O)[C@H](C)NC(=O)OCc1ccccc1 [Arg, Z-Ala-Arg-OMe] (Cbz-Ala-Arg-OMe)", "result": "8.7 A580 change/min./mg protease"}
{"compound": "COC(=O)[C@@H](NC(=O)[C@H](C)NC(=O)OCc1ccccc1)[C@@H](C)O [Thr] (Cbz-Ala-Thr-OMe)", "result": "0 A580 change/min./mg protease"}
{"compound": "COC(=O)[C@H](CO)NC(=O)[C@H](C)NC(=O)OCc1ccccc1 [Ser] (Cbz-Ala-Ser-OMe)", "result": "0 A580 change/min./mg protease"}
{"compound": "COC(=O)[C@H](Cc1ccc(O)cc1)NC(=O)[C@H](C)NC(=O)OCc1ccccc1 [Tyr, Z-Ala-Tyr-OMe] (Cbz-Ala-Tyr-OMe)", "result": "0 A580 change/min./mg protease"}
{"compound": "COC(=O)[C@H](C)NC(=O)[C@H](C)NC(=O)OCc1ccccc1 [Ala] (Cbz-Ala-Ala-OMe)", "result": "0 A580 change/min./mg protease"}
{"compound": "COC(=O)[C@H](CCCCN)NC(=O)[C@H](C)NC(=O)OCc1ccccc1 [Lys] (Cbz-Ala-Lys-OMe)", "result": "4.3 A580 change/min./mg protease"}
{"compound": "COC(=O)[C@@H](NC(=O)[C@H](C)NC(=O)OCc1ccccc1)C(C)C [Val] (Cbz-Ala-Val-OMe)", "result": "0 A580 change/min./mg protease"}
